These entries and their values trace back to patent US8907092B2.

Recorded IC50, one value per entry.
- study.target: MLXBIR3SG (Homo sapiens, UniProt Q96CA5, S150G)
- Sequence (Q96CA5 with tags, fused parts or gaps S150G): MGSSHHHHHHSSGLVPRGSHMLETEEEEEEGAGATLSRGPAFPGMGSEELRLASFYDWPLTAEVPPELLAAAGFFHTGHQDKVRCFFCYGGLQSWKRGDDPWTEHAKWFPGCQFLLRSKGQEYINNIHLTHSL
- assay.protocol: Fluorescence Polarization Peptide Binding Assay
- measurement.conditions: competition with 5 nM AVP-diPhe-FAM probe, MLXBIR3SG at 30 nM
Just the number please, in µM, no unit attached.

Here are 4 compounds together with their reported answers.
| compound | readout.kind | recorded.value |
| --- | --- | --- |
| CN[C@@H](C)C(=O)N[C@H](C(=O)N1CCC[C@H]1C(=O)Nc1sc(C(=O)NCCOCCOCCNC(=O)c2nc(-c3ccccc3)c(NC(=O)[C@@H]3CCCN3C(=O)[C@@H](NC(=O)[C@H](C)NC)C3CCCCC3)s2)nc1-c1ccccc1)C1CCCCC1 [compound 16] | IC50 | 0.234 |
| CN[C@@H](C)C(=O)N[C@H](C(=O)C1CCCN1c1nc2c(-c3ccccc3)nccc2s1)C1CCN(C(=O)NCCCCCCNC(=O)N2CCC([C@H](NC(=O)[C@H](C)NC)C(=O)N3CCC[C@H]3c3nc4c(-c5ccccc5)nccc4s3)CC2)CC1 (stereo partly shown) [compound 17] | IC50 | 0.168 |
| CN[C@@H](C)C(=O)N[C@H](C(=O)N1CCC[C@H]1C(=O)Nc1sc(C(=O)NCCCCCCCCCCCNC(=O)c2nc(-c3ccccc3)c(NC(=O)[C@@H]3CCCN3C(=O)[C@@H](NC(=O)[C@H](C)NC)C3CCCCC3)s2)nc1-c1ccccc1)C1CCCCC1 [compound 15] | IC50 | 3.83 |
| CN[C@@H](C)C(=O)N[C@H](C(=O)N1CCC[C@H]1C(=O)Nc1sc(-c2ccccn2)nc1-c1ccccc1)c1ccc(OCC#CC#CCOc2ccc([C@H](NC(=O)[C@H](C)NC)C(=O)N3CCC[C@H]3C(=O)Nc3sc(-c4ccccn4)nc3-c3ccccc3)cc2)cc1 [compound 14] | IC50 | 2.35 |

Dear colleague, I am looking for the recorded IC50 of the following compound: CN[C@@H](C)C(=O)N[C@H](C(=O)N1CCC[C@H]1C(=O)Nc1sc(C(=O)NCC(O)CNC(=O)c2nc(-c3ccccc3)c(NC(=O)[C@@H]3CCCN3C(=O)[C@@H](NC(=O)[C@H](C)NC)C3CCCCC3)s2)nc1-c1ccccc1)C1CCCCC1 [compound 22]
0.378

###

- study.target: MLXBIR3SG (Homo sapiens, UniProt Q96CA5, S150G)
- Sequence (Q96CA5 with tags, fused parts or gaps S150G): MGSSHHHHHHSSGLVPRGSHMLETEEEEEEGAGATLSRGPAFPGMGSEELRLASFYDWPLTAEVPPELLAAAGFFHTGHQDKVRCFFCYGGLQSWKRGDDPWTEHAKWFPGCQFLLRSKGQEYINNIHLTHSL
- assay.protocol: Fluorescence Polarization Peptide Binding Assay
- measurement.conditions: competition with 5 nM AVP-diPhe-FAM probe, MLXBIR3SG at 30 nM
readout.kind: IC50 (µM)
Just the number please, in µM, no unit attached.

Here are 2 molecules together with their reported answers.
| molecule | readout.unit | IC50 |
| --- | --- | --- |
| CN[C@@H](C)C(=O)N[C@H](C(=O)N1CCC[C@H]1C(=O)Nc1sc(-c2nccs2)nc1-c1ccccc1)c1ccc(OCC#CC#CCOc2ccc([C@H](NC(=O)[C@H](C)N)C(=O)N3CCC[C@H]3C(=O)Nc3sc(-c4nccs4)nc3-c3ccccc3)cc2)cc1 | µM | 1.03 |
| CN[C@@H](C)C(=O)N[C@H](C(=O)N1CCC[C@H]1C(=O)Nc1sc(C(=O)NCC(C)(C)CNC(=O)c2nc(-c3ccccc3)c(NC(=O)[C@@H]3CCCN3C(=O)[C@@H](NC(=O)[C@H](C)NC)C3CCCCC3)s2)nc1-c1ccccc1)C1CCCCC1 | µM | 0.679 |

Dear colleague, I am looking for the recorded IC50 of the following molecule: CN[C@@H](C)C(=O)N[C@H](C(=O)N1CC(OCc2ccc(C#CC#Cc3ccc(CO[C@H]4C[C@@H](C(=O)Nc5snnc5-c5ccccc5)N(C(=O)[C@@H](NC(=O)[C@H](C)NC)C5CCCCC5)C4)cc3)cc2)C[C@H]1C(=O)Nc1snnc1-c1ccccc1)C1CCCCC1 (some centres unmarked)
2.41

And CN[C@@H](C)C(=O)N[C@H](C(=O)N1CCC[C@H]1C(=O)Nc1sc(-c2nccn2C)nc1-c1ccccc1)c1ccc(OCC#CC#CCOc2ccc([C@H](NC(=O)[C@H](C)NC)C(=O)N3CCC[C@H]3C(=O)Nc3sc(-c4nccn4C)nc3-c3ccccc3)cc2)cc1 ?
1.1

And CN[C@@H](C)C(=O)N[C@H](C(=O)N1CCC[C@H]1C(=O)Nc1sc(C(=O)NCc2ccc(CNC(=O)c3nc(-c4ccccc4)c(NC(=O)C4CCCN4C(=O)[C@H](NC(=O)[C@@H](C)NC)C4CCCCC4)s3)cc2)nc1-c1ccccc1)C1CCCCC1 (some centres unmarked) ?
1.38
